For each of the variants below, state its self-cleavage kobs at 640 uM GlcN6P.
B1: glmS ribozyme (parent)
chain: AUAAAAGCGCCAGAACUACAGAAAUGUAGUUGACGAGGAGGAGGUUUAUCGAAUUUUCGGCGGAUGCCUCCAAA

Variants of: B1
Test: self-cleavage kobs at 640 uM GlcN6P; higher = faster cleavage; RNA array
Settings: with glucosamine-6-phosphate
Variants at the floor of the assay were thinned out.

Examples with their reported self-cleavage kobs at 640 uM GlcN6P follow.
>>> df
              mutation   assay_value
0  C11G G13C G38C C58A   < 1e-05 s⁻¹
1            G29C G51U   < 1e-05 s⁻¹
2       A12U G41U U45A  0.000308 s⁻¹
3            A12C U31A   0.00151 s⁻¹
4       U47G U49A A52G   < 1e-05 s⁻¹
5             C8G U46C   < 1e-05 s⁻¹
6            A12C C67A   0.00125 s⁻¹
7             G7C G37U   < 1e-05 s⁻¹
8   A6U A15C U55A G66U   < 1e-05 s⁻¹
9            G41C C68G   < 1e-05 s⁻¹

# per-item lookup of self-cleavage kobs at 640 uM GlcN6P; items listed below
1. C34G A42U
2. G29A A39G U54A
3. G7U C10G A15U C34A G40U C58G G60C G63A
4. G66A C67U

A.
["< 1e-05 s⁻¹", "0.00173 s⁻¹", "< 1e-05 s⁻¹", "0.00134 s⁻¹"]
